# tested target: PPARG (peroxisome proliferator activated receptor-gamma), GST-PPARG-LBD (Homo sapiens, UniProt P37231)
# Construct: 15 μL of 5 nM GST-PPARG-LBD and 5 nM Tb-GST-antibody were added; purchased Invitrogen PV4894
# Sequence (P37231 238-503 limits assumed): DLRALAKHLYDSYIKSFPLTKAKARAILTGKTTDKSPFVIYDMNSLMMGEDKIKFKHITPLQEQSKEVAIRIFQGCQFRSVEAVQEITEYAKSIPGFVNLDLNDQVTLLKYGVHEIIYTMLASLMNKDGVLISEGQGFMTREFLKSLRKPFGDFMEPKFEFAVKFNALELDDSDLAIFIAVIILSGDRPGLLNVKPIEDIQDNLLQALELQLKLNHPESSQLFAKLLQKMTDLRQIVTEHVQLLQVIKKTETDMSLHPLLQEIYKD
# experimental details: LanthaScreen TR-FRET PPARG Competitive Binding Assay
# Parameters: key: “+” indicates the degree of the binding activity, and as the number of “+” increases, the binding activity is stronger; ++: “+” indicates the degree of the binding activity, and as the number of “+” increases, the binding activity is stronger; +++: “+” indicates the degree of the binding activity, and as the number of “+” increases, the binding activity is stronger; ++++: “+” indicates the degree of the binding activity, and as the number of “+” increases, the binding activity is stronger
# details: degree of binding activity
# Method: The following experiment was performed to evaluate the PPARG (peroxisome proliferator activated receptor-gamma) binding capacity and transcriptional activity of the compounds prepared in the examples of the invention. […] Upon completion of the reaction, fluorescence value was measured by using Flexstation 3 (Molecular Devices) with time-resolved fluorescence (RFU) mode (excitation 1: 340 nm, emission 1: 518 nm, excitation 2: 340 nm, emission 2: 488 nm, integration delay 50 μs, integration 400 μs). […]
assay metric: Binding assay (1 μLM)

In [3]: df
Out[3]:
                                        mol           assay_metric  value
0  C[C@H](NC(=O)c1ccc2c(c1)CCCN2Cc1ccc(-c2ccccc2C(=O)O)cc1)c1ccc(F)c(F)c1  Binding assay (1 μLM)    +++
1  C[C@H](NC(=O)c1ccc2c(c1)CCCN2Cc1cccc(-c2ccccc2C(=O)O)c1F)c1ccc([N+](=O)[O-])cc1  Binding assay (1 μLM)     ++
2  C[C@H](NC(=O)c1ccc2c(c1)CCCN2Cc1ccc(-c2ccccc2C(=O)O)cc1F)c1ccc([N+](=O)[O-])cc1  Binding assay (1 μLM)    +++

###

# tested target: PPARG (peroxisome proliferator activated receptor-gamma), GST-PPARG-LBD (Homo sapiens)
# Construct: 15 μL of 5 nM GST-PPARG-LBD and 5 nM Tb-GST-antibody were added; purchased Invitrogen PV4894
# experimental details: LanthaScreen TR-FRET PPARG Competitive Binding Assay
# Parameters: key: “+” indicates the degree of the binding activity, and as the number of “+” increases, the binding activity is stronger; ++: “+” indicates the degree of the binding activity, and as the number of “+” increases, the binding activity is stronger; +++: “+” indicates the degree of the binding activity, and as the number of “+” increases, the binding activity is stronger; ++++: “+” indicates the degree of the binding activity, and as the number of “+” increases, the binding activity is stronger
# details: degree of binding activity
assay metric: Binding assay (1 μLM)

>>> print(df.to_string())
                                   compound           assay_metric  value
0  C[C@H](NC(=O)c1ccc2c(c1)CCCN2Cc1cccc(-c2ccccc2C(=O)O)c1)c1ccc(C#N)cc1 [Example 118]  Binding assay (1 μLM)      +
1  NC(=O)c1ccccc1-c1ccc(CN2CCOc3cc(C(=O)NCc4ccccc4)ccc32)cc1 [Example 100]  Binding assay (1 μLM)     ++
2  O=C(NCc1ccccc1Br)c1ccc2c(c1)OCCN2Cc1ccc(-c2ccccc2C(=O)O)cc1 [Example 92]  Binding assay (1 μLM)    +++
3  C[C@H](NC(=O)c1ccc2c(c1)OCCN2Cc1ccccc1-c1ccc(C(N)=O)cc1)c1ccc2ccccc2c1 [Example 151]  Binding assay (1 μLM)    +++
4  C[C@H](NC(=O)c1ccc2c(c1)OCCN2Cc1ccc(-c2ccccc2C(=O)O)c(F)c1)c1ccc2ccccc2c1 [Example 163]  Binding assay (1 μLM)    +++

Item C[C@H](NC(=O)c1ccc2c(c1)OCCN2Cc1ccc(-c2ccccc2C(=O)O)cc1)c1cccc(C(F)(F)F)c1 [Example 86] has what recorded Binding assay (1 μLM)?
+++

Give the measured Binding assay (1 μLM) of Cc1ccc([C@H](C)NC(=O)c2ccc3c(c2)CCCN3Cc2ccccc2-c2ccc(C(N)=O)cc2)cc1F [Example 158] .
+

Form field: reported Binding assay (1 μLM) of NC(=O)c1ccccc1-c1ccc(CN2CCCc3cc(C(=O)NCc4ccc5c(c4)OCCO5)ccc32)cc1 [Example 52]
+++

What Binding assay (1 μLM) value was documented for this compound, Cc1ccc([C@H](C)NC(=O)c2ccc3c(c2)OCCN3Cc2ccccc2-c2ccc(C(N)=O)cc2)cc1F [Example 148] ?
++

Any idea what Binding assay (1 μLM) was measured for C[C@H](NC(=O)c1ccc2c(c1)CCCN2Cc1cccc(-c2ccccc2C(=O)O)c1F)c1ccc2ccccc2c1 [Example 129] ?
++++

What measured Binding assay (1 μLM) goes with C[C@H](NC(=O)c1ccc2c(c1)OCCN2Cc1ccc(-c2ccccc2C(=O)O)cc1)c1ccc(OC(F)(F)F)cc1 [Example 75] ?
+++

Entry under review: C[C@H](NC(=O)c1ccc2c(c1)OCCN2Cc1ccccc1-c1ccc(C(=O)O)cc1)c1ccc([N+](=O)[O-])cc1 [Example 146] . Reported Binding assay (1 μLM)?
+

Entry C[C@H](NC(=O)c1ccc2c(c1)OCCN2Cc1ccc(-c2ccccc2C(N)=O)cc1)c1ccc(SC(F)(F)F)cc1 [Example 99] : reported Binding assay (1 μLM) = ?
+++

# input compound: C[C@H](NC(=O)c1ccc2c(c1)OCCN2Cc1ccc(-c2ccccc2C(=O)O)cc1)c1ccc(C#N)cc1 [Example 74] ; wanted: its Binding assay (1 μLM)
+
